Here the recorded pIC50 is given for each entry.
target: human MET kinase F1200I (Homo sapiens, UniProt P08581, F1200I); construct: GST-tagged recombinant human MET kinase domain; assay: c-Met Enzyme Assay, F1200I mutant; settings: averaged IC50; F1200I 2 nM; 60-minute incubation at 22° C.
Sequence (P08581 1078-1345 F1200I limits assumed): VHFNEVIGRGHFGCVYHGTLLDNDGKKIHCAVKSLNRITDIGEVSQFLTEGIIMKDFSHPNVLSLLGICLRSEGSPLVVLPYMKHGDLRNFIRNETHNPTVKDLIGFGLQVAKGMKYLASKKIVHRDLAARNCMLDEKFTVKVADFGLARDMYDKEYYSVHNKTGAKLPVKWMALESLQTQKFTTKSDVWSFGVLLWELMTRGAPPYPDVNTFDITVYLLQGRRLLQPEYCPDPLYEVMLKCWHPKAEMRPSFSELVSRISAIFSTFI
Please express pIC50 as -log10 of the molar concentration.

[
  {
    "Structure String": "COc1cc2nccc(Oc3ccc(NC(=O)c4cn(C(C)C)cc(-c5ccc(F)cc5)c4=O)cn3)c2cc1OC",
    "pIC50": 8.46
  },
  {
    "Structure String": "COc1cc2nccc(Oc3ccc(NC(=O)c4cn(CCC(C)C)cc(-c5ccc(F)cc5F)c4=O)nc3)c2cc1OC",
    "pIC50": 8.49
  },
  {
    "Structure String": "COc1cc2nccc(Oc3ccc(NC(=O)c4cn(CC(=O)N(C)C)cc(-c5ccc(F)cc5)c4=O)nc3)c2cc1OC",
    "pIC50": 8.37
  }
]

Query string: Check the records and state pIC50 for COc1cc2nccc(Oc3ccc(NC(=O)c4cn(CCN(C)C)cc(-c5ccc(F)c(F)c5)c4=O)nc3)c2cc1OC
Result string: 8.70

Query string: Tell me its pIC50 given COc1ccc2nccc(Oc3ccc(NC(=O)c4cn(CCN(C)C)cc(-c5ccc(F)cc5)c4=O)nc3)c2c1 as the entry.
Result string: 8.07

----------
We begin with a simple list: items and their reported pIC50.
target: His-tagged recombinant human MER cytoplasmic domain (Homo sapiens); construct: His-tagged recombinant human MER cytoplasmic domain; test: MER Enzyme Assay (LanthaScreen Eu Kinase Binding); settings: averaged IC50; MER 5 nM; 60-minute incubation at 22° C.; TR-FRET
Sequence (Q12866 527-999 limits assumed): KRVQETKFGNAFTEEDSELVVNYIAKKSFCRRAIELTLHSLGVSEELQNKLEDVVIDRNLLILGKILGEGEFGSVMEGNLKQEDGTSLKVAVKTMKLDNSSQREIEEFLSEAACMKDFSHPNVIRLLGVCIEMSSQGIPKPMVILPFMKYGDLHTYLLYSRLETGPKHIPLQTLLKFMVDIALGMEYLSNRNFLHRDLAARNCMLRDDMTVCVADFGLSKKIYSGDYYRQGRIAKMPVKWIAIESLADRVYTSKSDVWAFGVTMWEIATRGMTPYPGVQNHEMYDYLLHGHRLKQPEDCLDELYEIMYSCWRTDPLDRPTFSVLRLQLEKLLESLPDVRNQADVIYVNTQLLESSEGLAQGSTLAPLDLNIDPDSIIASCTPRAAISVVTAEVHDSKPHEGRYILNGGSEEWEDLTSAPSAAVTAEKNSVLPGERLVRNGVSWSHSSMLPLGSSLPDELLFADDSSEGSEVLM
Scale explanation: pIC50 corresponds to minus log10 of a concentration expressed in moles per litre.

Query string: GET pIC50 where system = His-tagged recombinant human MER cytoplasmic domain (Homo sapiens) and item = COc1cc2nccc(Oc3ccc(NC(=O)c4cn(C(C)C)cc(-c5ccc(F)cc5OC)c4=O)nc3)c2cc1OC
Result string: 8.52

Query string: Name the value of pIC50 reported for COc1cc2nccc(Oc3ccc(NC(=O)c4cn(CCC(C)C)cc(-c5ccc(F)c(F)c5)c4=O)nc3)c2cc1OC when tested on His-tagged recombinant human MER cytoplasmic domain (Homo sapiens).
Result string: 7.82

----------
Biological target: human MET kinase L1195V (Homo sapiens, UniProt P08581, L1195V)
Construct: GST-tagged recombinant human MET kinase domain
Sequence (P08581 1078-1345 L1195V limits assumed): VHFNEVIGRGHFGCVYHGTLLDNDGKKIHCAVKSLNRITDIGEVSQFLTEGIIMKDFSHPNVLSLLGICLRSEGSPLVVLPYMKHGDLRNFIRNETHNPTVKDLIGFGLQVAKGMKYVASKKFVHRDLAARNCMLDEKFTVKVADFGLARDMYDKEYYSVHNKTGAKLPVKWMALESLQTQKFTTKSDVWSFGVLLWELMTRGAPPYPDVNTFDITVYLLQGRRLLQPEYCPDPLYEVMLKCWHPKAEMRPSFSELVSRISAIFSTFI
Assay: c-Met Enzyme Assay, L1195V mutant
Conditions: averaged IC50; L1195V 10 nM; 60-minute incubation at 22° C.
Description: The affinity of compound binding to wild type and mutant human MET kinases was measured using Invitrogen's LanthaScreen™ Eu Kinase Binding technology. […] After a 60-minute incubation at 22° C., the reaction was measured using a PerkinElmer EnVision multimode plate reader via TR-FRET dual wavelength detection, and the percent of control (POC) calculated using a ratiometric emission factor. […]
Here the recorded pIC50 is given for each entry.
Keep in mind that pIC50 stands for -log10 of concentration in molar terms.

[
  {
    "Structure String": "COc1cc2nccc(Oc3ccc(NC(=O)c4cn(CC(=O)N(C)C)cc(-c5ccc(Cl)cc5)c4=O)nc3)c2cc1OC",
    "Recorded Measurement": 7.73
  }
]

Query string: Fill in reported pIC50 for this entry: COc1cc2nccc(Oc3ccc(NC(=O)c4cn(CCN(C)C)cc(-c5ccc(F)cc5F)c4=O)nc3)c2cc1OC
Result string: 7.72

Query string: Specify measured pIC50 for COc1cc2nccc(Oc3ccc(NC(=O)c4cn(CC(=O)N(C)C)cc(-c5ccc(F)cc5F)c4=O)nc3)c2cc1OC .
Result string: 7.08

Query string: Give me measured pIC50, please, for this molecule: CCCn1cc(C(=O)Nc2ccc(Oc3ccnc4cc(OC)c(OC)cc34)cn2)c(=O)c(-c2ccc(F)cc2)c1
Result string: 8.01

----------
The entries below are paired with their reported Papp at 2 h, 1 μM.
biological target: MDR1 (P-gp) (Homo sapiens); construct: expressed in transfected cells; host or cells: LLC-PK1; experiment: MDR1 LLC-PK1 permeability assay; format: in vitro ADME; details: pig; permeability coefficient (Papp), MDR1 transfected LLC-PK1 cells
Sequence (P08183 whole entry): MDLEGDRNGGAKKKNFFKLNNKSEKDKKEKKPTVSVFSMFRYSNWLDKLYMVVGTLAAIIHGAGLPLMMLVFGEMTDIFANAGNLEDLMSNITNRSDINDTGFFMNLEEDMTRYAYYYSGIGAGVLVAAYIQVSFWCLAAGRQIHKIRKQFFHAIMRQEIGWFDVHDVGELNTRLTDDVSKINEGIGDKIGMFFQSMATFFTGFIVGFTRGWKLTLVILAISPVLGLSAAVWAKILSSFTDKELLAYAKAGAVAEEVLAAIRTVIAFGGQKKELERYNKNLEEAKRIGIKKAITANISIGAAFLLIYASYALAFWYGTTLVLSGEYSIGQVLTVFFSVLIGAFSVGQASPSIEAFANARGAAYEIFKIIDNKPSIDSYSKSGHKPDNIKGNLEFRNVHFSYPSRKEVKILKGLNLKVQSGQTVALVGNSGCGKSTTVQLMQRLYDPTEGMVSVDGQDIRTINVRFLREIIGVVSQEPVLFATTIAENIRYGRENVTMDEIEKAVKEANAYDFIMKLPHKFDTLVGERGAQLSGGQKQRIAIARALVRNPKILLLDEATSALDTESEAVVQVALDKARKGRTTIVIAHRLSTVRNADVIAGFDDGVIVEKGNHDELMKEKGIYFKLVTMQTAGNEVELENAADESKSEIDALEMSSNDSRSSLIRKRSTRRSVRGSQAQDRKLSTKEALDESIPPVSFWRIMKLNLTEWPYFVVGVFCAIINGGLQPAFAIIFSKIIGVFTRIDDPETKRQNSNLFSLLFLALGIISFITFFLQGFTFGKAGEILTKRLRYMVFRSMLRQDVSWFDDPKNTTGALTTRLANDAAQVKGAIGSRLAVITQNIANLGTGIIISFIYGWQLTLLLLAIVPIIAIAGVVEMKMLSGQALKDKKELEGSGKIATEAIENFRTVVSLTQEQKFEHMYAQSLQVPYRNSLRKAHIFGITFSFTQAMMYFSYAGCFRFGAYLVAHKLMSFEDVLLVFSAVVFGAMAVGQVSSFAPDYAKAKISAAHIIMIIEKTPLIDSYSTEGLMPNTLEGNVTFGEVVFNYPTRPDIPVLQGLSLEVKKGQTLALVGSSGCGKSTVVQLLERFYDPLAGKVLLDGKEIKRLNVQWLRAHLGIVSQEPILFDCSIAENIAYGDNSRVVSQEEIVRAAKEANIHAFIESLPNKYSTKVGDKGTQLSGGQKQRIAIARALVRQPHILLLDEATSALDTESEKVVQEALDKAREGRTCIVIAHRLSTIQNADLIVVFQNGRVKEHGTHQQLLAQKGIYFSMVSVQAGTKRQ

Some solved entries appear below for comparison.
[
  {
    "Molecule": "COc1cc2nccc(Oc3ccc(NC(=O)c4cn(CCC(C)C)cc(-c5ccc(F)c(F)c5)c4=O)nc3)c2cc1OC [Example 35]",
    "Papp at 2 h, 1 μM": "< 1 ×10⁻⁶ cm/s"
  },
  {
    "Molecule": "COc1ccc2nccc(Oc3ccc(NC(=O)c4cn(C(C)C)c(C)c(-c5ccc(F)cc5)c4=O)nc3)c2c1 [Example 33]",
    "Papp at 2 h, 1 μM": "10 ×10⁻⁶ cm/s"
  }
]

Query string: Provide Papp at 2 h, 1 μM value for the following molecule: COc1cc2nccc(Oc3ccc(NC(=O)c4cn(CC(=O)N5CCOCC5)cc(-c5ccc(F)cc5F)c4=O)nc3)c2cc1OC [Example 15]
Result string: 2 ×10⁻⁶ cm/s

Query string: Answer with the recorded Papp at 2 h, 1 μM for the molecule listed here: COc1cc2nccc(Oc3ccc(NC(=O)c4cn(C(C)C)c(C)c(-c5ccc(F)c(F)c5)c4=O)nc3)c2cc1OC [Example 28]
Result string: 15 ×10⁻⁶ cm/s

Query string: Provide only the value of recorded Papp at 2 h, 1 μM for COc1cc2nccc(Oc3ccc(NC(=O)c4cn(CC(=O)N(C)C)cc(-c5ccc(Cl)cc5)c4=O)nc3)c2cc1OC [Example 25]
Result string: 6.4 ×10⁻⁶ cm/s

Query string: Return the recorded Papp at 2 h, 1 μM value; entry: COc1cc2c(Oc3ccc(NC(=O)c4cn(C(C)C)cc(-c5ccc(F)cc5)c4=O)nc3)ccnc2cc1F [Example 49]
Result string: 4 ×10⁻⁶ cm/s

Query string: State its Papp at 2 h, 1 μM: CCOc1ccc2nccc(Oc3ccc(NC(=O)c4cn(C(C)C)cc(-c5ccc(F)cc5)c4=O)nc3)c2c1 [Example 51]
Result string: 3 ×10⁻⁶ cm/s

----------
Target: GST-tagged recombinant human TYRO3 kinase domain (Homo sapiens)
Construct: GST-tagged recombinant human TYRO3 kinase domain
Sequence (Q06418 518-790 limits assumed): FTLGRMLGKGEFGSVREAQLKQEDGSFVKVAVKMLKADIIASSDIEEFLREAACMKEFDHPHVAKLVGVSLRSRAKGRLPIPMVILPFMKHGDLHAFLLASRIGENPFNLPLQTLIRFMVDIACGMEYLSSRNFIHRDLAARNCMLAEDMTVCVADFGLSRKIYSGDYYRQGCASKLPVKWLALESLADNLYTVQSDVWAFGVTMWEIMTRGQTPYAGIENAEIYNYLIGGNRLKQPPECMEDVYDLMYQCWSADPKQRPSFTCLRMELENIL
Test: TYRO3 Enzyme Assay (LanthaScreen Eu Kinase Binding)
Settings: averaged IC50; TYRO3 5 nM; 60-minute incubation at 22° C.; TR-FRET
Measure: pIC50
// scale note: pIC50 = -log10(conc_M); give the bare number

Below, each entry is followed by its recorded pIC50 result.
[
  {
    "Compound": "COc1ccc2nccc(Oc3ccc(NC(=O)c4cn(C(C)C)cc(-c5ccc(F)cc5)c4=O)nc3)c2c1 [Example 40]",
    "Measure": "pIC50",
    "Recorded Measurement": 7.72
  },
  {
    "Compound": "COc1cc2c(Oc3ccc(NC(=O)c4cn(C(C)C)cc(-c5ccc(F)cc5)c4=O)nc3)ccnc2cc1OCCCN1CCOCC1 [Example 56]",
    "Measure": "pIC50",
    "Recorded Measurement": 8.00
  },
  {
    "Compound": "COc1cc2nccc(Oc3ccc(NC(=O)c4cn(CC(=O)N5CCOCC5)cc(-c5ccc(F)cc5F)c4=O)nc3)c2cc1OC [Example 15]",
    "Measure": "pIC50",
    "Recorded Measurement": 6.53
  },
  {
    "Compound": "COc1cc2nccc(Oc3ccc(NC(=O)c4cn(C)cc(-c5ccc(F)cc5)c4=O)nc3)c2cc1OC [Example 2]",
    "Measure": "pIC50",
    "Recorded Measurement": 8.22
  },
  {
    "Compound": "CCc1c(-c2ccc(F)cc2)c(=O)c(C(=O)Nc2ccc(Oc3ccnc4cc(OC)c(OC)cc34)cn2)cn1C(C)C [Example 29]",
    "Measure": "pIC50",
    "Recorded Measurement": 8.22
  }
]

Query string: Consider the compound COc1ccc(-c2cn(C(C)C)cc(C(=O)Nc3ccc(Oc4ccnc5cc(OC)c(OC)cc45)cn3)c2=O)c(F)c1 [Example 31] . State its measured pIC50.
Result string: 7.64

Query string: Please look at this compound and report its pIC50: COc1cc2nccc(Oc3ccc(NC(=O)c4cn(CC(=O)N(C)C)cc(-c5ccc(F)cc5F)c4=O)nc3)c2cc1OC [Example 13]
Result string: 7.66

Query string: Please report the measured pIC50 for COc1cc2nccc(Oc3ccc(NC(=O)c4c[nH]cc(-c5ccc(F)cc5)c4=O)nc3)c2cc1OC [Example 26]
Result string: 7.82

Query string: Quick one: give measured pIC50 for COc1cc2nccc(Oc3ccc(NC(=O)c4cn(C(C)C)cc(-c5ccc(F)cc5)c4=O)nc3)c2cc1OC [Example 1]
Result string: 8.30

Query string: State its pIC50: CCCn1cc(C(=O)Nc2ccc(Oc3ccnc4cc(OC)c(OC)cc34)cn2)c(=O)c(-c2ccc(F)cc2)c1 [Example 10]
Result string: 7.82

Query string: Check the records and state pIC50 for CCC(CC)n1cc(C(=O)Nc2ccc(Oc3ccnc4cc(OC)c(OC)cc34)cn2)c(=O)c(-c2ccc(F)cc2F)c1 [Example 16]
Result string: 7.96

Query string: Query pIC50 for COc1cc2nccc(Oc3cnc(NC(=O)c4cn(C(C)C)cc(-c5ccc(F)cc5)c4=O)nc3)c2cc1OC [Example 54]
Result string: 7.68

Query string: State, in one line, measured pIC50 of COc1cc2nccc(Oc3ccc(NC(=O)c4cn(CCC(C)C)cc(-c5ccc(F)cc5F)c4=O)nc3)c2cc1OC [Example 36]
Result string: 7.85

Query string: Provide pIC50 value for the following compound: COc1cc2nccc(Oc3ccc(NC(=O)c4cn(CC(=O)N(C)C)cc(-c5ccc(F)c(F)c5)c4=O)nc3)c2cc1OC [Example 24]
Result string: 7.27

Query string: Fill in pIC50 for record COc1ccc2nccc(Oc3ccc(NC(=O)c4cn(CCN(C)C)cc(-c5ccc(F)cc5)c4=O)nc3)c2c1 [Example 47]
Result string: 7.25

Query string: Please look at this compound and report its pIC50: COc1ccc2nccc(Oc3ccc(NC(=O)c4cn(C)cc(-c5ccc(F)cc5)c4=O)nc3)c2c1 [Example 41]
Result string: 6.85

Query string: Return the recorded pIC50 value; entry: CCCC(CCC)n1cc(C(=O)Nc2ccc(Oc3ccnc4cc(OC)c(OC)cc34)cn2)c(=O)c(-c2ccc(F)cc2F)c1 [Example 17]
Result string: 7.12

Query string: Specify measured pIC50 for COc1cc2nccc(Oc3ccc(NC(=O)c4cn(C5CCOCC5)cc(-c5ccc(F)cc5)c4=O)nc3)c2cc1OC [Example 12] .
Result string: 7.64

Query string: Give the value of pIC50 reported for the following: COc1cc2c(Oc3ccc(NC(=O)c4cn(C(C)C)c(C)c(-c5ccc(F)cc5)c4=O)nc3)ccnc2cc1F [Example 48]
Result string: 8.00

Query string: Give pIC50 for COc1cc2nccc(Oc3ccc(NC(=O)c4cn(C(C)C)cc(-c5ccc(F)cc5C)c4=O)nc3)c2cc1OC [Example 19]
Result string: 8.40

Query string: Could you please provide reported pIC50 for COCCn1cc(C(=O)Nc2ccc(Oc3ccnc4cc(OC)c(OC)cc34)cn2)c(=O)c(-c2ccc(F)cc2)c1 [Example 7] ? Thanks!
Result string: 8.15
